- Tested on: SNB-75
- method summary: NCI tumour cell line growth inhibition, 48 h
Active and inactive are the calls of the source. No stated cut-off is given here; in the data, active = GI50 up to about 1.1 µM and inactive = higher.
result type: GI50

compound: O=C(O)CSc1ccccc1C(=O)O
result type: GI50
result: > 100 µM (inactive)
--
compound: CSc1ccc2c(cc1=O)[C@@H](NC(=O)c1cc(O)c(O)c(O)c1)CCc1cc(O)c(O)c(O)c1-2
result type: GI50
result: 23.4 µM (inactive)
--
compound: CC1(C)C(O)OC(O)C1(C)C (stereo not given)
result type: GI50
result: 35.2 µM (inactive)
--
compound: COc1ccc(/C=N/N=C(N)N)c(C(=O)O)c1OC
result type: GI50
result: > 100 µM (inactive)
--
compound: COc1ccc(C2c3cc4c(cc3OC(NNS(=O)(=O)c3ccc(C)cc3)C2C)OCO4)cc1 (stereo not given)
result type: GI50
result: 37.4 µM (inactive)
--
compound: CCCNc1c(Cl)cc(Cl)c2[nH]c3ccccc3c(=O)c12
result type: GI50
result: 31.5 µM (inactive)
--
compound: COC(=O)Nc1nc2ccccc2[nH]1
result type: GI50
result: 9.38 µM (inactive)
--
compound: CCOC(=O)Cn1nnc2ccc(Nc3nc4ccccc4nc3C(=O)OCC)cc21
result type: GI50
result: 18.5 µM (inactive)
--
compound: O=C1Nc2ccc(Br)cc2/C1=N/NC(=S)Nc1ccc([N+](=O)[O-])cc1
result type: GI50
result: 16 µM (inactive)
--
compound: COc1c(OC)c(OC)c(-c2cc(=O)c3c(OC)c(OC)c(OC)c(OC)c3o2)c(OC)c1OC
result type: GI50
result: 57.5 µM (inactive)
--
compound: Cc1c(C)c2c(c(N)c1C#N)C(=O)N(O)C2=O
result type: GI50
result: 45.2 µM (inactive)
--
compound: Cc1ccc(S(=O)(=O)C(C#N)c2nc3ccccc3nc2N2CCOCC2)cc1 (stereo not given)
result type: GI50
result: 22.8 µM (inactive)
--
compound: O=C1/C(=C/c2ccc(Cl)cc2)CCCc2ccccc21
result type: GI50
result: 30.3 µM (inactive)
--
compound: CN(C)CCCNCc1cccc2ccccc12
result type: GI50
result: > 100 µM (inactive)
--
compound: Nc1[nH]cnc2ncnc1-2
result type: GI50
result: 121 µM (inactive)
